Exercise: for every item that follows, state its recorded melting point.

// worked examples, melting point included
Compound: Oc1ccc(Br)cc1C1CC(c2ccc(Cl)cc2)=NN1c1ccccc1 (stereo not shown)
melting point: 88 to 91 °C
--
Compound: Oc1ccc(Br)cc1C1CC(c2ccc(Br)cc2)=NN1c1ccccc1 (stereo not shown)
melting point: 104 to 106 °C
--
Compound: Oc1c(Cl)cc(Cl)cc1C1CC(c2ccc(Cl)cc2)=NN1c1ccccc1 (stereo not shown)
melting point: 42 to 43 °C
--
Compound: Oc1ccc(Br)cc1C1CC(c2ccc(Cl)c(Cl)c2)=NN1c1ccccc1 (stereo not shown)
melting point: 95 to 98 °C

For every item in the list below, what is its measured melting point?
1. COc1ccc(C2=NN(c3ccccc3)C(c3ccccc3O)C2)cc1 (stereo not shown)
2. Cc1ccc(C2=NN(c3ccccc3)C(c3cc(Cl)ccc3O)C2)cc1 (stereo not shown)
3. Oc1ccc(Cl)cc1C1CC(c2ccc(Cl)c(Cl)c2)=NN1c1ccccc1 (stereo not shown)
4. Oc1ccccc1C1CC(c2ccc(Cl)c(Cl)c2)=NN1c1ccccc1 (stereo not shown)
5. Oc1ccc(Cl)cc1C1CC(c2ccc(F)cc2)=NN1c1ccccc1 (stereo not shown)
6. Oc1ccccc1C1CC(c2ccc(Cl)cc2)=NN1c1ccccc1 (stereo not shown)
7. Cc1ccc(C2=NN(c3ccccc3)C(c3cc(Br)ccc3O)C2)cc1 (stereo not shown)
8. Oc1ccccc1C1CC(c2ccc(Br)cc2)=NN1c1ccccc1 (stereo not shown)

35 to 37 °C
43 to 46 °C
77 to 79 °C
57 to 59 °C
60 to 63 °C
54 to 56 °C
59 to 63 °C
65 to 68 °C

Origin of the recorded values: paper PMC4020744
